Parameter Ki, tested on rat CB2 receptors (Rattus norvegicus (Rat), UniProt Q9QZN9), listed per item.

compound: CC(C)(C)c1cn(C[C@H]2CCCO2)/c(=N/C(=O)c2cc(C(F)(F)F)ccc2OC[C@@H]2CCCN2S(C)(=O)=O)s1
Ki: 3 nM

compound: CN1CCC(COc2ccc(C(F)(F)F)cc2C(=O)/N=c2\sc(C(C)(C)C)cn2C[C@H]2CCCO2)CC1
Ki: 83 nM

compound: CC(C)(C)c1cn(C[C@H]2CCCO2)/c(=N/C(=O)c2cc(C(F)(F)F)ccc2OC[C@H]2CCC[N+]2(C)[O-])s1 (stereo partly shown)
Ki: 12 nM

compound: CC(C)(C)c1cn(C[C@H]2CCCO2)/c(=N/C(=O)c2cc(C(F)(F)F)ccc2OCc2ccccn2)s1
Ki: 6 nM

====

Target: rat CB2 receptors (HEK cells) (Rattus norvegicus (Rat), UniProt Q9QZN9)
Experiment: rat CB2 cyclase functional assay (HitHunter cAMP)
Type: cell-based
Details: HEK cells, forskolin 18 μM; read-out: rat CB2 cyclase (EC50)
pEC50: −log10 of the molar value.
pEC50 of 9 or higher: yes (1). Under 9: no (0).

molecule: CN1CCC[C@H]1COc1ccc(C(F)(F)F)cc1C(=O)/N=c1\sc(C(C)(C)C)cn1C[C@H]1CCCO1 [Example 24]
tgt: rat CB2 receptors (HEK cells) (Rattus norvegicus (Rat), UniProt Q9QZN9)
category: yes (1)

molecule: Cn1ccnc1COc1ccc(C(F)(F)F)cc1C(=O)/N=c1\sc(C(C)(C)C)cn1C[C@H]1CCCO1 [Example 17]
tgt: rat CB2 receptors (HEK cells) (Rattus norvegicus (Rat), UniProt Q9QZN9)
category: no (0)

molecule: CN1CC[C@H]1COc1ccc(C(F)(F)F)cc1C(=O)/N=c1\sc(C(C)(C)C)cn1C[C@H]1CCCO1 [Example 3]
tgt: rat CB2 receptors (HEK cells) (Rattus norvegicus (Rat), UniProt Q9QZN9)
category: yes (1)

molecule: CC(COc1ccc(C(F)(F)F)cc1C(=O)/N=c1\sc(C(C)(C)C)cn1C[C@H]1CCCO1)=NOC1CCCCO1 (stereo partly shown) [Example 63]
tgt: rat CB2 receptors (HEK cells) (Rattus norvegicus (Rat), UniProt Q9QZN9)
category: no (0)

molecule: CN1CCCC[C@@H]1COc1ccc(C(F)(F)F)cc1C(=O)/N=c1\sc(C(C)(C)C)cn1C[C@H]1CCCO1 [Example 7]
tgt: rat CB2 receptors (HEK cells) (Rattus norvegicus (Rat), UniProt Q9QZN9)
category: yes (1)

molecule: CN1CCN(C)C(COc2ccc(C(F)(F)F)cc2C(=O)/N=c2\sc(C(C)(C)C)cn2C[C@@H]2CCCO2)C1 (stereo partly shown) [Example 34]
tgt: rat CB2 receptors (HEK cells) (Rattus norvegicus (Rat), UniProt Q9QZN9)
category: yes (1)

====

Biological target: human CB2 receptors (Homo sapiens (Human), UniProt P34972)
Sequence (P34972 whole entry): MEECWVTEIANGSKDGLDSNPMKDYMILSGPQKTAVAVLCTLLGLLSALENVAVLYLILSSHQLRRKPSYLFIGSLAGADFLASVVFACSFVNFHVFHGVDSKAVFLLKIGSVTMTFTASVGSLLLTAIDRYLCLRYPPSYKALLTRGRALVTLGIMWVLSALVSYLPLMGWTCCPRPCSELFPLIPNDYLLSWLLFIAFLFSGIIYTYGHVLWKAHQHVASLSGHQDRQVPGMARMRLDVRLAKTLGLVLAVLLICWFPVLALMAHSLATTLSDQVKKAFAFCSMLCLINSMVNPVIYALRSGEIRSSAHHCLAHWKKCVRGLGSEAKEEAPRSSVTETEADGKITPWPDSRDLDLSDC
Assay: human CB2 radioligand binding assay ([3H]CP 55,940 competition)
Conditions: HEK293 membranes, 0.5 nM [3H]CP 55,940; read-out: human CB2 (Ki)
observation-type: Ki (nM)

compound-string: CC(C)(C)c1cn(C[C@H]2CCCO2)/c(=N/C(=O)c2cc(C(F)(F)F)ccc2OCc2cnco2)s1
unit-of-measurement: nM
measured-number: 26

compound-string: CC(C)(C)c1cn(C[C@H]2CCCO2)/c(=N/C(=O)c2cc(C(F)(F)F)ccc2OCc2ccccn2)s1
unit-of-measurement: nM
measured-number: 20

compound-string: CN1CC[C@@H](COc2ccc(C(F)(F)F)cc2C(=O)/N=c2\sc(C(C)(C)C)cn2C[C@H]2CCCO2)C1
unit-of-measurement: nM
measured-number: 141

compound-string: CN1CCCC[C@@H]1COc1ccc(C(F)(F)F)cc1C(=O)/N=c1\sc(C(C)(C)C)cn1C[C@H]1CCCO1
unit-of-measurement: nM
measured-number: 33

compound-string: CC(C)(C)c1cn(C[C@H]2CCCO2)/c(=N/C(=O)c2cc(C(F)(F)F)ccc2OC[C@@H]2CCCN2S(C)(=O)=O)s1
unit-of-measurement: nM
measured-number: 16

compound-string: CC(C)(C)c1cn(C[C@H]2CCCO2)/c(=N/C(=O)c2cc(C(F)(F)F)ccc2OC[C@H]2CCCO2)s1
unit-of-measurement: nM
measured-number: 3

compound-string: CC(COc1ccc(C(F)(F)F)cc1C(=O)/N=c1\sc(C(C)(C)C)cn1C[C@H]1CCCO1)=NO
unit-of-measurement: nM
measured-number: 1.8

compound-string: CN1C(=O)CC[C@H]1COc1ccc(C(F)(F)F)cc1C(=O)/N=c1\sc(C(C)(C)C)cn1C[C@H]1CCCO1
unit-of-measurement: nM
measured-number: 62

compound-string: CC(C)(C)c1cn(C[C@H]2CCCO2)/c(=N/C(=O)c2cc(C(F)(F)F)ccc2OC[C@@H]2CCCCN2)s1
unit-of-measurement: nM
measured-number: 0.7

compound-string: CC(C)(C)c1cn(C[C@H]2CCCO2)/c(=N/C(=O)c2cc(C(F)(F)F)ccc2OC[C@@H]2CCCN2)s1
unit-of-measurement: nM
measured-number: 4.6

compound-string: CN1CCC[C@H]1COc1ccc(C(F)(F)F)cc1C(=O)/N=c1\sc(C(C)(C)C)cn1C[C@H]1CCCO1
unit-of-measurement: nM
measured-number: 4.6

compound-string: CN1CCC(COc2ccc(C(F)(F)F)cc2C(=O)/N=c2\sc(C(C)(C)C)cn2C[C@H]2CCCO2)CC1
unit-of-measurement: nM
measured-number: 1000

compound-string: CC(C)N1CCC[C@H]1COc1ccc(C(F)(F)F)cc1C(=O)/N=c1\sc(C(C)(C)C)cn1C[C@H]1CCCO1
unit-of-measurement: nM
measured-number: 102

compound-string: CC(C)(C)c1cn(C[C@@H]2CCCO2)/c(=N/C(=O)c2cc(C(F)(F)F)ccc2OC[C@H](N)CO)s1
unit-of-measurement: nM
measured-number: 7.4

Recorded values, source patent US8846730B2.
